Source of measurements: ChEMBL document CHEMBL1144884

# Target System: Aldo-keto reductase family 1 member B1 (Homo sapiens, UniProt P15121)
# Test Method Notes: In vitro inhibition of recombinant human aldose reductase (ALR2)
Observation Type: inhibition (%)
Give your result in % as a bare value.

Worked examples follow.
Oc1c(Br)cc(Br)cc1Oc1c(Br)cc(Br)c(Br)c1O; 25
Oc1c(Nc2cc(Br)c(Br)c(Br)c2O)cc(Br)c(Br)c1Br; 18
COc1cc(Br)c(Br)cc1Oc1cc(Br)c(Br)cc1OC; 0

Req: Query (molecule): Oc1cc(Br)c(Br)cc1Oc1cc(Br)c(Br)cc1O ; field requested: inhibition
Resp: 46

Req: Entry to check: COc1cc(Br)c(Br)c(Br)c1Oc1cc(Br)cc(Br)c1OC
Resp: 0

Req: Now try COc1c(Br)cc(Br)cc1Oc1c(Br)c(Br)c(Br)c(Br)c1OC .
Resp: 0

Req: What do you have for Oc1ccc(Br)cc1Oc1cc(Br)ccc1O ?
Resp: 32

Req: What would you report for Oc1cc(Br)c(Br)c(Br)c1Oc1cc(Br)cc(Br)c1O ?
Resp: 0

Req: Queued: COc1c(Nc2cc(Br)c(Br)c(Br)c2OC)cc(Br)c(Br)c1Br
Resp: 0

Req: What do you get for COc1c(Br)c(Br)c(Br)c(Br)c1Oc1cc(O)cc(Br)c1O ?
Resp: 0

Req: Quick one: Oc1cc(Br)c(O)c(Oc2c(O)c(Br)c(Br)c(Br)c2Br)c1
Resp: 38

Req: # iterate: CC(=O)Oc1c(Br)cc(Br)cc1Oc1c(Br)c(Br)c(Br)c(Br)c1OC(C)=O
Resp: 0

Req: Again, but for COC(=O)COc1c(Br)cc(Br)cc1Oc1c(Br)c(Br)c(Br)c(Br)c1OCC(=O)OC
Resp: 0
